The measurements presented in this section are drawn from PubChem BioAssay (NCATS).

System: TAB109
Assay Summary: qHTS profiling for inhibitors of Plasmodium falciparum proliferation (AID 504749); further: nearly all actives have a fitted effect of over 60% in size
Particulars: P. falciparum in erythrocytes, SYBR Green DNA, 72 h; series mostly up to 28.7 µM
Results filed as inconclusive are left out. Active and inactive are the calls of the source. The call rests on the fitted dose curve; in most records, active means well fitted inhibition curve with a large enough effect; inconclusive means small, poorly fitted or top-dose-only effect; inactive means flat fitted curve, though single readings scatter.
Labels: active, inactive

smiles_input=CC(=O)OCC(=O)[C@@]1(OC(C)=O)[C@@H](C)C[C@H]2[C@@H]3C[C@H](F)C4=CC(=O)C=C[C@]4(C)[C@@]3(F)[C@@H](O)C[C@@]21C measurement_target=TAB109 cat=inactive
smiles_input=C[C@@H]1C[C@H]2[C@@H]3CCC4=CC(=O)C=C[C@]4(C)[C@@]3(F)[C@@H](O)C[C@]2(C)[C@H]1C(=O)CO measurement_target=TAB109 cat=inactive
smiles_input=CN1CCC(=C2c3ccccc3Sc3ccccc32)CC1 measurement_target=TAB109 cat=active
smiles_input=CN(C)CCCOc1nn(Cc2ccccc2)c2ccccc12 measurement_target=TAB109 cat=inactive
smiles_input=O=C(Nc1ccc(Oc2ccc(Cl)cc2)c(Cl)c1)c1cc(I)cc(I)c1O measurement_target=TAB109 cat=inactive

* * *

Assay Summary: S16 Schwann cell viability assay (CellTiter-Glo assay) (AID 624031); further: nearly all actives have a fitted effect of over 70% in size
Particulars: S16 rat Schwann cells viability, 24 h; series mostly up to 57.5 µM
Records with an inconclusive call do not appear. Calls of active or inactive are those of the source. Calls come from the whole dose curve; as a rule, active = well fitted cell-killing curve with a large enough effect; inconclusive = small, poorly fitted or top-dose-only effect, or effect the other way; inactive = flat fitted curve, though single readings scatter.
Outcome codes: 1 (yes) (active), 0 (no) (inactive)

molecule=CN1CCN(C(c2ccccc2)c2ccccc2)CC1 cat="0 (no)"
molecule=O=C1[C@H]2CCCC[C@H]2C(=O)N1CCCCN1CCN(c2nsc3ccccc23)CC1 cat="1 (yes)"
molecule=N[C@@H](Cc1cnc[nH]1)C(=O)O cat="0 (no)"
molecule=CC(=O)Oc1ccc(C(c2ccc(OC(C)=O)cc2)c2ccccn2)cc1 cat="0 (no)"
molecule=Cc1c(N(C)CS(=O)(=O)O)c(=O)n(-c2ccccc2)n1C cat="0 (no)"
molecule=Cc1c(C(N)=O)cc([N+](=O)[O-])cc1[N+](=O)[O-] cat="0 (no)"
molecule="CO/N=C1\\CN(c2nc3c(cc2F)c(=O)c(C(=O)O)cn3C2CC2)CC1CN (stereo unspecified)" cat="0 (no)"
molecule=O=C(Nc1ccc(Oc2ccc(Cl)cc2)c(Cl)c1)c1cc(I)cc(I)c1O cat="0 (no)"
molecule=C[C@]12CCC(=O)C=C1CC[C@H]1[C@@H]3CC[C@](O)(C(=O)CO)[C@@]3(C)C[C@H](O)[C@@]12F cat="0 (no)"
molecule="CCCCN1CCCC1C(=O)Nc1c(C)cc(C)cc1C (stereo unspecified)" cat="0 (no)"
molecule=CCN1CCN(c2cc3c(cc2F)c(=O)c(C(=O)O)cn3C2CC2)CC1 cat="0 (no)"

* * *

Assay Summary: qHTS of pediatric cancer cell lines to identify multiple opportunities for drug repurposing: Confirmatory screen for SK-N-SH cells (AID 1347129);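 further: cells exposed to compound for 48 h before viability read; nearly all actives have a fitted effect of over 60% in size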
Particulars: SK-N-SH neuroblastoma cell viability; series mostly up to 46.1 µM
Results filed as inconclusive are left out. Calls of active or inactive are those of the source. Calls follow the shape of the dose curve; as a rule, active = well fitted cell-killing curve with a large enough effect; inconclusive = small, poorly fitted or top-dose-only effect; inactive = flat fitted curve, though single readings scatter. Numbered stars: 1 amine (or outer) side, 2 acyl side, 3 side chain; on linkers, the order of the positions; unused ones are H or OH. Bridge positions count the residues as written; N and C are the ends. Square brackets hold non-standard residues; d marks the D form. Peptide text beside a SMILES is read from it. I, II: the chains in the order shown. Actinocin(9to1) = Cc1c2oc3c(C)ccc(C(=O)[*:1])c3nc-2c(C(=O)[*:2])c(N)c1=O; NMeV = CN[C@H](C(=O)O)C(C)C; Sar = CNCC(=O)O
Classes used: yes = active, no = inactive

compound=COc1cccc2c1C(=O)c1c(O)c3c(c(O)c1C2=O)C[C@@](O)(C(=O)CO)C[C@@H]3O[C@H]1C[C@H](N)[C@H](O)[C@H](C)O1 cat=yes
compound=C[C@H]1C[C@H]2[C@@H]3CCC4=CC(=O)C=C[C@]4(C)[C@@]3(Cl)[C@@H](O)C[C@]2(C)[C@@]1(O)C(=O)CO cat=no
compound=CN(C)C(=S)SC(=S)N(C)C cat=no
compound=CCCCC(=O)O[C@]1(C(=O)CO)CC[C@H]2[C@@H]3CCC4=CC(=O)CC[C@]4(C)[C@H]3[C@@H](O)C[C@@]21C cat=no
compound="Cc1c2oc3c(C)ccc(C(=O)N[C@@H]4C(=O)N[C@H](C(C)C)C(=O)N5CCC[C@H]5C(=O)N(C)CC(=O)N(C)[C@@H](C(C)C)C(=O)O[C@@H]4C)c3nc-2c(C(=O)N[C@@H]2C(=O)N[C@H](C(C)C)C(=O)N3CCC[C@H]3C(=O)N(C)CC(=O)N(C)[C@@H](C(C)C)C(=O)O[C@@H]2C)c(N)c1=O (I: T[dV]P[Sar][NMeV] / II: T[dV]P[Sar][NMeV]; ester I:1-I:C, II:1-II:C; linker I:N-II:N via Actinocin(9to1))" cat=yes
compound=COc1cc(C=C2CCC/C(=C\c3ccc(O)c(OC)c3)C2=O)ccc1O cat=yes
compound=C[C@]12CCC(=O)C=C1CC[C@H]1[C@@H]3CC[C@](O)(C(=O)CO)[C@@]3(C)C[C@H](O)[C@@]12F cat=no
compound=C[C@@H]1C[C@H]2[C@@H]3CCC4=CC(=O)C=C[C@]4(C)[C@@]3(F)[C@@H](O)C[C@]2(C)[C@H]1C(=O)CO cat=no
compound=CC(=O)OCC(=O)[C@@]1(O)CC[C@H]2[C@@H]3CCC4=CC(=O)C=C[C@]4(C)[C@H]3[C@@H](O)C[C@@]21C cat=no
compound=CCOc1ccc2nc3cc(N)ccc3c(N)c2c1 cat=yes
compound="CCCCC(CC)CN=C(N)NC(N)=NCCCCCCN=C(N)NC(N)=NCC(CC)CCCC (stereo unspecified)" cat=yes
compound=CC(=O)OCC(=O)[C@@]12OC(C)(C)O[C@@H]1C[C@H]1[C@@H]3C[C@H](F)C4=CC(=O)C=C[C@]4(C)[C@@]3(F)[C@@H](O)C[C@@]12C cat=no
compound=CC(=O)[C@H]1CC[C@H]2[C@@H]3C[C@H](C)C4=CC(=O)CC[C@]4(C)[C@H]3[C@@H](O)C[C@]12C cat=no
compound=C=C1C[C@H]2[C@@H]3C=C(C)C4=CC(=O)CC[C@]4(C)[C@H]3CC[C@]2(C)[C@@]1(OC(C)=O)C(C)=O cat=no
compound=CCCCCCC[N+](CC)(CC)CCCCc1ccc(Cl)cc1 cat=yes
compound=NC(CO)(CO)CO cat=no
